Ki values for Tyrosine-protein kinase JAK2 (Homo sapiens), compiled from several publications.

{"compound": "Oc1ccc(C2Nc3ccccc3-c3c(Cl)cnc4[nH]cc2c34)c(Cl)c1 (centres unmarked)", "recorded value": "< 250 nM"}
{"compound": "C[C@H](Nc1cc(-c2c(N)nn3ccc(C(F)(F)F)nc23)ncn1)c1ccc(F)cc1F", "recorded value": "10 to 100 nM"}
{"compound": "CN(CC#N)C(=O)c1cc(-c2ncnc3[nH]ccc23)cn1C", "recorded value": "< 100 nM"}

Specify reported Ki for the compound shown: `C=COCCCCOc1nc(N[C@@H](C)c2ccc(F)cc2)cc(-c2c(N)nn3cccnc23)n1` 10 to 100 nM
